Tested on: A549
ASSAY OVERVIEW: NCI tumour cell line growth inhibition, 48 h
Activity calls are given as the source filed them. No stated cut-off is given here; in the data, active = GI50 up to about 1.1 µM and inactive = higher.
Respond using exactly one of the listed classes: 1 = active, 0 = inactive

Worked set:
{"columns": ["COMPOUND", "TESTED ON", "CLASSIFICATION"],
 "data": [
  ["O=C(NC(Cc1ccc(I)cc1)C(=O)O)c1cccc(Br)c1 (centres undefined)", "A549", 0],
  ["O=S(=O)(O)c1cc(/N=N/c2cc(S(=O)(=O)O)c3cccnc3c2O)ccc1/C=C/c1ccc(/N=N/c2cc(S(=O)(=O)O)c3cccnc3c2O)cc1S(=O)(=O)O", "A549", 0],
  ["COc1ccc(C[C@H]2COC(=O)[C@@H]2Cc2ccc(O)cc2)cc1OC", "A549", 0],
  ["CCc1cc(Cc2cc(CC)c(NC(=O)C(=O)Cc3ccccn3)c(CC)c2Cl)c(Cl)c(CC)c1NC(=O)C(=O)Cc1ccccn1", "A549", 0]
]}

Input: For this compound, state the assay outcome: C/C(=C\c1ccccc1)n1c(=O)cc(C)n1C
Output: 0

Input: Queued: O=C1c2cccc3cc([N+](=O)[O-])cc(c23)C(=O)N1O
Output: 0

Input: Queued: COc1cc(/C=[N+](\[O-])c2ccccc2Cl)ccc1OC(=S)S
Output: 0

Input: Queued: C=C1C(O)C2(O)OCC34C(CC5C(C)=CC(=O)C(O)C5(C)C23)OC(=O)C(OC(=O)C/C=C/CCCCCCCC)C14 (centres undefined)
Output: 1

Input: Queued: COc1ccc(/C=c2\sc3n(c2=O)C(N)=C(C#N)C(c2ccc(OC)cc2)C=3c2nc3ccccc3[nH]2)cc1 (centres undefined)
Output: 0

Input: Queued: Nc1cc(F)ccc1CC(=O)O
Output: 0

Input: Queued: Cc1[nH]c(-c2ccccc2)c(O)c1C(=O)OC1CC(C)CCC1C(C)C (centres undefined)
Output: 0

Input: Queued: C=CC1=C(C)c2cc3[nH]c(c4c5nc(cc6[nH]c(cc1n2)c(C)c6CC)C(C)=C5C(=O)[C@@H]4C(=O)OC)[C@@H](CCC(=O)O)[C@@H]3C
Output: 0

Input: Queued: CC1(C)COC(c2cccc(C(O)c3ccc(Cl)cc3)c2)=N1 (centres undefined)
Output: 0

Input: Queued: COc1cc(C2c3cc4c(cc3[C@@H](OCCN(C)C)C3COC(=O)[C@H]23)OCO4)cc(OC)c1O (some centres undefined)
Output: 1

Input: Queued: C=CCC12CC(=O)CCC1c1ccc(OC)cc1C2=O (centres undefined)
Output: 0

Input: Queued: O=C(Nc1ccc2ncccc2c1)c1cc2c(cc1Cl)Sc1nccn1S2(=O)=O
Output: 0

Input: Queued: O=C(C(Cl)=C(N1CCOCC1)N1CCOCC1)C(Cl)Cl
Output: 0

Input: Queued: O=[N+]([O-])/C(C(Cl)=C(Cl)Cl)=C1\Nc2ccccc2O1
Output: 0

Input: Queued: CCCCc1c2c(nc3c1CCc1cc4c(nc1-3)-c1nc3c(c(CCCC)c1CC4)CCC/C3=C\c1ccccc1)/C(=C/c1ccccc1)CCC2
Output: 0

----------
System: PC-3
ASSAY OVERVIEW: NCI tumour cell line growth inhibition, 48 h
Active and inactive are the calls of the source. Rule as the data show it: active = GI50 up to about 1.1 µM and inactive = higher.
VALUE KIND: GI50

Sample records with GI50:
{"columns": ["COMPOUND", "TESTED ON", "RESULT"],
 "data": [
  ["NC(Cc1c[nH]c2ccc([N+](=O)[O-])cc12)C(=O)O (stereo unspecified)", "PC-3", "> 100 µM (inactive)"],
  ["CCc1nnc(S)n1/N=C\\c1ccc(-c2ccccc2[N+](=O)[O-])o1", "PC-3", "41.5 µM (inactive)"],
  ["C=CCC1(O)c2cccc(O)c2C(=O)c2c(O)cccc21", "PC-3", "26 µM (inactive)"],
  ["Cn1c(=S)sc2nc3ccccc3n2c1=S", "PC-3", "19.6 µM (inactive)"],
  ["O=C(C(Cl)=C(N1CCOCC1)N1CCOCC1)C(Cl)Cl", "PC-3", "> 100 µM (inactive)"]
]}

Please find the next compound below.
Input: Please look up its GI50: CCOC(=O)/C=C1\Nc2ccccc2C12CCc1c([nH]c3ccccc13)C2C(=O)OCC (stereo unspecified)
Output: > 100 µM (inactive)

----------
Test system: Malme-3M
ASSAY OVERVIEW: NCI tumour cell line growth inhibition, 48 h
Where a name gives a salt, the structure may show the parent alone. Calls of active or inactive are those of the source. Rule as the data show it: active = GI50 up to about 1.1 µM and inactive = higher.
Respond using exactly one of the listed classes: 1 = active, -1 = inactive

{"columns": ["COMPOUND", "CLASSIFICATION"],
 "data": [
  ["C=C1CC(OC(C)=O)/C=C(/C)CCC(C(C)(C)O)CC1O (stereo not given)", -1],
  ["C[C@]12CCC3[C@@H](C[C@H]4OC(=O)[C@@]35CCC(=O)C=C45)C1CCC2=O (stereo not given in full)", -1],
  ["Cc1cc[n+]2c(c1)-c1cc(C)cc[n+]1CC2", -1],
  ["COc1ccc(OC)c(NC(=O)CCC/C(CC(=O)c2ccc(O)c(OC)c2)=N\\Nc2nnc(C)n2N)c1", -1],
  ["CC(=O)Oc1ccc2c3c1O[C@H]1[C@H](O)CC[C@@]4(O)[C@@H](C2)N(C)CC[C@]314", -1],
  ["CCOC(=O)/C=C1\\Nc2ccccc2C12CCc1c([nH]c3ccccc13)C2C(=O)OCC (stereo not given)", -1],
  ["CC1(C)CC2=C(Sc3ccccc3N2)C(=O)C1C(=O)C(=O)Nc1cc(Cl)ccc1Cl (stereo not given)", -1],
  ["CN1[C@@H]2CC[C@H]1C[C@@H](OC(c1ccccc1)c1ccccc1)C2 [BENZTROPINE MESYLATE]", -1]
]}

Input: For this compound, state the assay outcome: Oc1cc(-c2ccc(Cl)cc2)nc2ncccc12
Output: -1

Input: Queued: O=C1Nc2ccccc2Nc2nc3cccccc-3c21
Output: -1

Input: Queued: CC(C)C1=Cc2ccc3c(c2C(=O)C1=O)CCCC3
Output: -1

Input: Queued: CCOC(=O)c1cc(C#N)[nH]c1-c1ccsc1
Output: -1

Input: Queued: Cc1cnc2ccc(C)c([N+](=O)[O-])c2c1NCCCN(C)C
Output: -1

Input: Queued: Cn1c(=S)sc2nc3ccccc3n2c1=S
Output: -1

Input: Queued: O=c1oc2ccccc2cc1-c1nc2ccccc2s1
Output: -1

Input: Queued: COCN(C)c1nc(N(C)C)nc(N(C)C)n1
Output: -1

Input: Queued: O=C(CSc1nnc(SCC(=O)NN=C2CCCCC2)s1)NN=C1CCCCC1
Output: -1

Input: Queued: CCc1cc(Cc2cc(CC)c(NC(=O)C(=O)Cc3ccccn3)c(CC)c2Cl)c(Cl)c(CC)c1NC(=O)C(=O)Cc1ccccn1
Output: -1

Input: Queued: CC(C)OC(=O)NCCn1cc(-c2ccccc2)nn1
Output: -1

Input: Queued: CN(C)/C=N/NC(=O)/C(C#N)=C/N(C)C
Output: -1

Input: Queued: COc1cc(CC(C(=O)O)C(=O)O)c(OC)cc1CC(C(=O)O)C(=O)O
Output: -1

Input: Queued: COc1ccc2nc(NC(=O)C(=O)NNC(=O)c3ccncc3)sc2c1
Output: -1

Input: Queued: CCCCN(C)CC(C(C)=O)C(c1ccccc1)c1c(O)c2ccccc2oc1=O (stereo not given)
Output: -1

Input: Queued: NC(=O)C(=O)CC(=O)c1ccccc1NC1=CC(=O)C(=O)c2ccccc21
Output: -1

Input: Queued: COC(=O)C(Cc1nc2ccccc2nc1O)C(=O)C(=O)Nc1ccc(OC)cc1[N+](=O)[O-] (stereo not given)
Output: -1

Input: Queued: S=C(N/N=C(/c1ccccc1)c1ccccn1)Nc1ccc(Cl)cc1
Output: 1

Input: Queued: CC12CCC(=O)C=C1CCC1C2C(O)CC2(C)C(c3csc(N)n3)CCC12.O=S(=O)(O)c1ccc(Br)cc1 (stereo not given)
Output: -1

Input: Queued: COc1cc(COC(=O)N2CCC2C(=O)O)c([N+](=O)[O-])cc1OC (stereo not given)
Output: -1

Input: Queued: O=C(c1ccccc1)N1C2CCC1C(C(F)(F)F)=C2C(F)(F)F
Output: -1

Input: Queued: O=c1c(Cl)cc2nc3ccccc3sc-2c1Cl
Output: -1

----------
Tested on: OVCAR-3
ASSAY OVERVIEW: NCI tumour cell line growth inhibition, 48 h
Activity calls are given as the source filed them. Rule as the data show it: active = GI50 up to about 1.1 µM and inactive = higher.
Respond using exactly one of the listed classes: active, inactive

Worked set:
{"columns": ["COMPOUND", "CLASSIFICATION"],
 "data": [
  ["COc1cc(/C=C2\\CCc3cc(OC)c(OC)cc3C2=O)cc(OC)c1", "inactive"],
  ["CC(=O)c1c(C)cn(S(=O)(=O)NC(=O)Nc2nncs2)c1C", "inactive"],
  ["O=c1[nH]nc(Cc2ccccc2)n1/N=C/c1c[nH]c2ccccc12", "inactive"],
  ["CCCCCCCCCc1cc(=O)c2ccc(O)cc2o1", "inactive"],
  ["COC(=O)C(Cc1ccccc1)OC(=O)C(N)CC(=O)O (stereo unspecified)", "inactive"],
  ["NNc1nncc2[nH]cnc12", "inactive"],
  ["CC(C)OP(=O)(OC(C)C)/C(=N/Nc1ccc([N+](=O)[O-])cc1)NCCN/C(=N\\Nc1ccc([N+](=O)[O-])cc1)P(=O)(OC(C)C)OC(C)C", "inactive"],
  ["COC(=O)c1c([N+](=O)[O-])ncn1[C@H]1OC[C@@H](OC(C)=O)[C@@H](OC(C)=O)[C@@H]1OC(C)=O", "inactive"],
  ["Cc1ccc2ccccc2c1CC1S(=O)(=O)OCCOS1(=O)=O", "inactive"],
  ["Cc1cccc(C)c1NC(=O)C(=O)CC(=O)CO", "inactive"]
]}

From here, focus on the item given below.
Input: For this compound, state the assay outcome: COc1cc(C)c(C)c(OC(=O)c2c(C)c(C)c(OC)c(C)c2OC)c1C
Output: inactive

All values here come from ChEMBL document CHEMBL1201862.
